# System: SUP-B15
# procedureDetails: ATP-based luminescence cell viability (CellTiter Glo), drug response score, SUP-B15
# Design: scale not given here
# setupConditions: SUP-B15, Target compression, 5 Pick 3 pools
// values below are reported DRS from deconvolution
Keep the answer to the number alone.

compound="COc1c(OCCCN2CCOCC2)ccc2c1N=C(NC(=O)c1cnc(N)nc1)N1CCN=C21 [Copanlisib]" valueobserved=1.98
compound="CC1(C)CCC(CN2CCN(c3ccc(C(=O)NS(=O)(=O)c4ccc(NCC5CCOCC5)c([N+](=O)[O-])c4)c(Oc4cnc5[nH]ccc5c4)c3)CC2)=C(c2ccc(Cl)cc2)C1 [Venetoclax]" valueobserved=37.99
compound="Cc1[nH]c2ccccc2c1CCNCc1ccc(/C=C/C(=O)NO)cc1 [Panobinostat]" valueobserved=21.44

Then this compound:
Req: Can you look up the measured DRS from deconvolution of N#Cc1ccnc(N2C(=O)CC[C@H]2C(=O)N(c2cncc(F)c2)[C@H](C(=O)NC2CC(F)(F)C2)c2ccccc2Cl)c1 [Ivosidenib] for me?
Resp: 0.00

This collection of values is drawn from patent US20260378560A1.
